# Test system: T1, human Fc Receptor-Like 5 (FcRL5), full length, expressed on cells (human, UniProt Q96RD9 16-977)
# T1 construct: also called CD307e; IRTA2
# T1 sequence: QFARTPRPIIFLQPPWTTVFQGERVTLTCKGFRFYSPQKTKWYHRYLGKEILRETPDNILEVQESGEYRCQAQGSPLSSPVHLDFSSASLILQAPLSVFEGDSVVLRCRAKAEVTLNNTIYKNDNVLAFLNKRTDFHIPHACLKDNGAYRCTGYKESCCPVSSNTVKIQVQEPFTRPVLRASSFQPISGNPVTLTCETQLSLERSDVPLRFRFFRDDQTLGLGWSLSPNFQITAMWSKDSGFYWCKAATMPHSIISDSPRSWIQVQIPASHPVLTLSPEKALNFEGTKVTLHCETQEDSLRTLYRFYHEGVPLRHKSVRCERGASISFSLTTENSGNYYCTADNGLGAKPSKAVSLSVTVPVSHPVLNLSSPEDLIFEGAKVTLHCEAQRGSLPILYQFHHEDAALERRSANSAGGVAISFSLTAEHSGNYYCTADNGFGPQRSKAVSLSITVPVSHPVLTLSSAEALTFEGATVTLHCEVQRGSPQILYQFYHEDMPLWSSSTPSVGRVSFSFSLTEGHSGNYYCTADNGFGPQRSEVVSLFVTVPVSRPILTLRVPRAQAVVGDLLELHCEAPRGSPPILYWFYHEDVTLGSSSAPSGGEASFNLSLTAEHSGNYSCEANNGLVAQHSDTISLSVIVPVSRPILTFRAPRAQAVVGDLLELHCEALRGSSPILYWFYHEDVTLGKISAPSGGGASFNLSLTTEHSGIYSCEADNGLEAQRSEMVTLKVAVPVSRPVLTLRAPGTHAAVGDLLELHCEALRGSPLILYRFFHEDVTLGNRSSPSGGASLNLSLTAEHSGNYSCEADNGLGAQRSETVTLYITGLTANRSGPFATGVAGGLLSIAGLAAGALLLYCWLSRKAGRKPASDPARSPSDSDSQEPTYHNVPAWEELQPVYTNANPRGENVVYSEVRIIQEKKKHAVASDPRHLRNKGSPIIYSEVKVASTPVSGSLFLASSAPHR
# Experimental protocol: scFv phage: ELISA on His-tag FcRL5, flow cytometry on FcRL5-overexpressing 3T3 and Raji cells
Readout label: binding result

>>> measured_value("ET200-106 scFv (scFv, VL-linker-VH; screened as scFv phage clone) scFv: SYELTQPPAASGTPGQRVTISCSGGVSNIGSGALNWYQQLPGTAPKLLIYSYNQRPSGVSDRFSGSRSATSASLAISGLQSEDEADYYCATWDDSVNGWVFGGGTKLTVLGSRGGGGSGGGGSGGGGSLEMAEVQLVESGAEVKKPGDSVKVSCKPSGYNFLNYGINWVRQAPGQGLEWMGWISTYTGNTNYAQKLQGRVTFTTDTSTSTAYMEMRSLRSDDTAVYYCARQQGGGWYDVWGQGTLVTVSS")
"binds"
>>> measured_value("ET200-006 scFv (scFv, VL-linker-VH; screened as scFv phage clone) scFv: SYVLTQPPSVSVAPGKTARITCGGNNIGSKSVHWYQQKPGQAPVVVIHYDSDRPSGIPERFSGSNSGNTATLTISRVEAGDEADYYCQVWDSSSDHPYVFGTGTKVTVLGSRGGGGSGGGGSGGGGSLEMAEVQLVQSGAEVKKPGASVKVSCKASGYTFTTYGISWVRQAPGQGLEWMGWINTYNGHTNYAQKLQGRATMTADTSTNTAYMELRSLRSDDTAVYYCARVIYGSGDYWGQGTLVTVSS")
"binds"
>>> measured_value("ET200-110 scFv (scFv, VL-linker-VH; screened as scFv phage clone) scFv: QSVLTQPPSASGTPGQRVTISCSGSSSNIGTNGVNWFQQFPGTAPKLLIYTNDQRPSGVPDRFSGSKSGTSASLAISGLQSADEADYYCAVWDHSLNGPVFGGGTKLTVLGSRGGGGSGGGGSGGGGSLEMAQVQLVQSGAEVKKPGSSVKVSCKASGGTFSSYAISWVRQAPGQGLEWMGGIIPIFGTANYAQKFQGRVTITADESTSTAYMELSSLRSEDTAVYYCARGAGFDAFDIWGQGTMVTVSS")
"binds"
